Test system: OVCAR4
Assay: Euclidean distance of Cell Painting phenotypic profile (signed KS, 77 features) to DMSO centroid (dimensionless distance); 5 or 10 uM (library dependent); higher = stronger phenotypic change vs DMSO (phenoactivity)
Conditions: 48 h
Euclidean distance values for the compounds below.
Write the number on its own, no unit after it.

Example cases with answers are listed next.
>  <Compound>
CO/N=C(\C(=O)N[C@@H]1C(=O)N2C(C(=O)O)=CCS[C@H]12)c1csc(N)n1 [Ceftizoxime]

>  <Euclidean distance>
1.56

$$$$
>  <Compound>
O=C(Nc1cccc(Cl)c1)c1ccccn1

>  <Euclidean distance>
0.899

$$$$

What does the data say about its Euclidean distance? Entry: CCC[C@@H]1C[C@@H](C(=O)N[C@@H]([C@H]2O[C@H](SC)[C@H](OP(=O)(O)O)[C@@H](O)[C@H]2O)[C@H](C)Cl)N(C)C1 [Clindamycin Phosphate]
1.38

// next record C[C@H]1O[C@@H](O[C@H]2[C@@H](O)C[C@H](O[C@H]3[C@@H](O)C[C@H](O[C@H]4CC[C@@]5(C)[C@H](CC[C@@H]6[C@@H]5C[C@@H](O)[C@]5(C)[C@@H](C7=CC(=O)OC7)CC[C@]65O)C4)O[C@@H]3C)O[C@@H]2C)C[C@H](O)[C@@H]1O
6.68

Lookup CCN(CC)CCCC(C)Nc1ccnc2cc(Cl)ccc12 (stereo not drawn) [Chloroquine Phosphate]
3.09

Data origin, for the record: the supplement of paper PMC10127200
